biological target: EhCS1 (Entamoeba histolytica); assay: CS inhibitory activity, recombinant EhCS1 (acid-ninhydrin cysteine detection); assay type: biochemical; conditions: recombinant EhCS1, 15 min at 37°C, 2 mM O-acetyl-L-serine, 2 mM Na2S; read-out: IC50 CS1
Sequence (O15570 entry or part of it): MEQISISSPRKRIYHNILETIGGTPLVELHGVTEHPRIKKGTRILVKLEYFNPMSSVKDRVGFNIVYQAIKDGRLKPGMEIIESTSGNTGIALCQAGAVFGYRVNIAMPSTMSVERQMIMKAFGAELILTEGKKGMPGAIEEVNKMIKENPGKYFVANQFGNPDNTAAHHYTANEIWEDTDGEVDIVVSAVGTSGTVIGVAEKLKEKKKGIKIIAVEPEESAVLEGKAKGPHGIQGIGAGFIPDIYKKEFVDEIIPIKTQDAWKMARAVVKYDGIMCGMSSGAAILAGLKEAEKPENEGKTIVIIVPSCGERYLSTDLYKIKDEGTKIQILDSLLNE
# key: entry, value: pIC50
Recall that pIC50 is obtained by taking minus log10 of the concentration measured in molar.

SMILES ENTRY	EXPERIMENTAL TARGET	pIC50
C[C@@H]1O[C@@H](CC(=O)O)CC2=C1C(=O)c1c(O)cccc1C2=O	EhCS1 (Entamoeba histolytica)	4.28

Task: Which value of pIC50 has been reported for C[C@@H]1O[C@@H](O[C@@H]2C[C@H](c3ccc4c(c3O)C(=O)C3=C(C4=O)[C@@]4(O[C@H]5CC[C@H](O)[C@H](C)O5)C(=O)C[C@](C)(O)C[C@@]4(O)C=C3)O[C@H](C)[C@H]2O)CC[C@@H]1O in the records?
Output: 6.01
